Attribution: patent US8324225B2

molecular target: CDK2/Cyclin-A kinase complex (Homo sapiens, UniProt P24941); assay: CDK2 IMAP fluorescence polarization assay; type: biochemical; details: Table E; read-out: CDK2cyA IMAP/IC50 [umol l − 1]
Recorded Endpoint: IC50

Enquiry: Please look up its IC50: `Cc1cn(C2CCCC2)c2nc(Nc3ccc4[nH]ccc4c3)ncc12`
Return: > 15 µM

----------
Measured pIC50 of individual entries
biological target: CDK2/Cyclin-A kinase complex (Homo sapiens); test: CDK2 IMAP fluorescence polarization assay; type: biochemical; conditions: Table C; read-out: CDK2 IC50
pIC50: −log10 of the molar value.

Check out these entries, answers already filled in.
>  <Structure Smiles>
Cc1cn(C2CCCC2)c2nc(Nc3ccc(N4CCNCC4)cc3)ncc12

>  <pIC50>
> 5.00

$$$$
>  <Structure Smiles>
Cc1cn(C2CCCC2)c2nc(Nc3ccc(N4CCNCC4)cn3)ncc12

>  <pIC50>
< 5.00

$$$$
>  <Structure Smiles>
Cc1cn(C2CCCC2)c2nc(Nc3ccc(N4CCN(C)CC4)cc3)ncc12

>  <pIC50>
< 5.00

$$$$

Enquiry: Please look up its pIC50: `CC(=O)N1CCN(c2ccc(Nc3ncc4c(C)cn(C5CCCC5)c4n3)cc2)CC1`
Return: > 5.00

----------
Measured pIC50 of individual entries
Biological target: CDK4/Cyclin-D1 kinase complex (Homo sapiens)
Sequence (P11802 whole entry): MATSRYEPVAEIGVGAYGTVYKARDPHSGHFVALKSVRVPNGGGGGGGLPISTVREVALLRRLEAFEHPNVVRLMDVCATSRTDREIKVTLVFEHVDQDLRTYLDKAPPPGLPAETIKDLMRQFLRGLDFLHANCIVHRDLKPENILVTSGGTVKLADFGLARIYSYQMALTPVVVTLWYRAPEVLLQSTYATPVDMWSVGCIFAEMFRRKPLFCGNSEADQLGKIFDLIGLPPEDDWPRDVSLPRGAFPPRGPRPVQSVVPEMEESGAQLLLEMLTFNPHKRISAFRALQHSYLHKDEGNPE
Sequence (P24385 whole entry partner): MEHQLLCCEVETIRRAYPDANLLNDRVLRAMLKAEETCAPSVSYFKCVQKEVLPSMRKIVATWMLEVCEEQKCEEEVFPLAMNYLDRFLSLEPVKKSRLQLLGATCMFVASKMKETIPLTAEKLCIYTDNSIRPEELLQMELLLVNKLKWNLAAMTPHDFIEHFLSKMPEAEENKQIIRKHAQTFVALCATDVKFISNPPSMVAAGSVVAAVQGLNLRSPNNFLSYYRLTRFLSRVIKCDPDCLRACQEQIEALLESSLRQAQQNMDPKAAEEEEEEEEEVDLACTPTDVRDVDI
Test: CDK4 ELISA based assay, Rb phosphorylation at Serine780
Settings: Table C
Source text: The compounds that inhibit the CDK4 kinase activity would inhibit the signal output of the assay.
pIC50: −log10 of the molar value.

Check out these entries, answers already filled in.
>  <Structure Smiles>
Cc1cn(C2CCCC2)c2nc(Nc3ccc(N4CCNCC4)cn3)ncc12

>  <pIC50>
> 5.00

$$$$
>  <Structure Smiles>
CC(=O)N1CCN(c2ccc(Nc3ncc4ccn(C5CCCC5)c4n3)cc2)CC1

>  <pIC50>
< 5.00

$$$$
>  <Structure Smiles>
Cc1cn(C2CC2)c2nc(Nc3ccc(N4CCNCC4)cc3)ncc12

>  <pIC50>
> 5.00

$$$$
>  <Structure Smiles>
CC(C)(C)OC(=O)N1CCN(c2ccc(Nc3ncc4ccn(C5CCCC5)c4n3)nc2)CC1

>  <pIC50>
< 5.00

$$$$
>  <Structure Smiles>
CC(=O)N1CCN(c2ccc(Nc3ncc4c(C)cn(C5CCCC5)c4n3)cc2)CC1

>  <pIC50>
> 5.00

$$$$
>  <Structure Smiles>
Cc1cn(C2CCCC2)c2nc(Nc3ccc(N4CCN(C)CC4)cc3)ncc12

>  <pIC50>
> 5.00

$$$$
>  <Structure Smiles>
CN1CCN(c2ccc(Nc3ncc4ccn(C5CCCC5)c4n3)cc2)CC1

>  <pIC50>
> 5.00

$$$$
>  <Structure Smiles>
Cc1cn(C2CCCCC2)c2nc(Nc3ccc(N4CCNCC4)cn3)ncc12

>  <pIC50>
> 5.00

$$$$

Enquiry: Please look up its pIC50: `c1cc(Nc2ncc3ccn(C4CCCC4)c3n2)ncc1N1CCNCC1`
Return: < 5.00

Enquiry: And the next one, `c1cc(N2CCNCC2)ccc1Nc1ncc2ccn(C3CCCC3)c2n1` ?
Return: > 5.00

Enquiry: And the next one, `Cc1cn(C2CC2)c2nc(Nc3ccc(N4CCNCC4)cn3)ncc12` ?
Return: > 5.00

Enquiry: And the next one, `CC(=O)N1CCN(c2ccc(Nc3ncc4ccn(C5CCCC5)c4n3)nc2)CC1` ?
Return: < 5.00

----------
target: hCDK1/B (Homo sapiens); assay: hCDK1/B; conditions: Table E; read-out: hCDK1/B/IC50 [umol l − 1]
Sequence (P06493 whole entry): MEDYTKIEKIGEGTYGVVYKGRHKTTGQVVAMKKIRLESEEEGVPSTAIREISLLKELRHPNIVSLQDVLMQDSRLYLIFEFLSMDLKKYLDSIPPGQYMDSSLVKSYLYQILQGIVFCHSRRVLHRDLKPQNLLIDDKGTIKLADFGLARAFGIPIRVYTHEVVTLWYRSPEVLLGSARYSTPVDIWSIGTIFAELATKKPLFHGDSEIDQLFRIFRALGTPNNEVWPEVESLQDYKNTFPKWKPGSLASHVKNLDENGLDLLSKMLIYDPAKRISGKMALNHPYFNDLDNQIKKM
Sequence (P14635 whole entry partner): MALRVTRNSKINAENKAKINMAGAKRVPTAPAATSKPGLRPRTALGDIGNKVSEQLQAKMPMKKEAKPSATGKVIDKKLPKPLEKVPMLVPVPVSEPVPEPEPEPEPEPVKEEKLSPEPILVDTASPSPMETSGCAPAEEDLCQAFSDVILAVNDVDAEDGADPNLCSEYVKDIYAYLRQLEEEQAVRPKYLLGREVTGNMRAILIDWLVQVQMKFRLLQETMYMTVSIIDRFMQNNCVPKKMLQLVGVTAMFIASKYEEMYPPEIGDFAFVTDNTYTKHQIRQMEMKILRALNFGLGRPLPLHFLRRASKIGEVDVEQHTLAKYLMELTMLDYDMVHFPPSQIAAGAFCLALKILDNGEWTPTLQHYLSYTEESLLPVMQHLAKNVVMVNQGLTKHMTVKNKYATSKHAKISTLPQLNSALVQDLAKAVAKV
Recorded Endpoint: IC50

Enquiry: Request - read-out IC50 | tested on hCDK1/B (Homo sapiens) | molecule `Cc1cn(C2CCCC2)c2nc(Nc3ccc4[nH]ccc4c3)ncc12`
Return: > 15 µM
